Biological target: T1, naked peptide TDFTSPIPNM (human)
T1 peptide: TDFTSPIPNM
Test: ELISA naked peptide; scFv 1 ug/mL; repII
value-type: OD450 (OD)
Expressed in OD, but write only the number.

Consider the following illustrative entries.
binder: Comparative antibody 3 (Comp-3) scFv, SR_92R (Somovilla-Crespo et al. 2018), His-tagged (scFv) scFv: EVKLEESGGGLVQPGGSMKLSCVASGFTFNKFWMNWVRQSPEKGLEWVAEIRLKSNNYATHYAESVKGRFTISRDDSKSSVYLQMNNLRAEDTGIYYCASDGWFAYWGQGTLVTVSAGGGGSGGGGSGGGGSGGGGSDVVMTQTPLSLPVSLGDQASISCRSSQSLVHSNGNTYLNWCLQRPGQSPKSLIYKVSNRFSGVPDRFSGSGSGTDFTLKISRVEAEDLGVYFCSQSTHFPRTFGGGTKLEIKRHHHHHH
OD450 [OD]: 0.08

binder: Comparative antibody 2 (Comp-2) scFv, 243LO326 (VH SEQ ID NO: 51 and VL SEQ ID NO: 52 of WO 2022/195028 A2), His-tagged (scFv) scFv: QVQLVQSGAEVKKPGASVKVSCKASGYTFTSYWMHWVRQAPGQGLEWIGVIYPGNSDTRYNQKFKGRVTITRDTSASTAYMELSSLRSEDTAVYYCTRDYYSNYVYYYAMDYWGQGTTVTVSSGGGGSGGGGSGGGGSGGGGSDIVMTQTPLSLPVTPGEPASISCRSSQSLVHPNRNTYLHWYLQKPGQSPQLLIYKVSNRFSGVPDRFSGSGSGTDFTLKISRVEAEDVGVYYCSQSTHVPWTFGQGTKLEIKHHHHHH
OD450 [OD]: 0.05

binder: Comparative antibody 1 (Comp-1) scFv, SEQ ID NO: 10 from WO2023/037125 A1, His-tagged (scFv) scFv: QVQLKESGPGLVQPSQTLSLTCTVSGFSVASYDMHWVRLPPGKGLEWMGIIWANGNTHYNSGLKSRLSISRDTSKSQVFLKMNSLQTEDTAIYFCTRGGFAYWGQGTLVTVSSGGGGSGGGGSGGGGSGGGGSDVVMTQTPVSLSVSLGGQVSISCRSSQSLVHNNGNTYLSWYLQKPGQSPQLLIYKVSNRFSGVSDRFSGSGSGTDFTLKISRVEPDDLGVYYCGQGTQYPTFGGGTKLELKHHHHHH
OD450 [OD]: 0.06

// switching to the query binder
The recorded OD450 for CCR9_HUM2 scFv (humanized anti-CCR9 scFv, SEQ ID NO: 17 with C-terminal 6xHis tag) (scFv) scFv: QVQLVQSGAEVKKPGASVKVSCTASGYSFTDYIIYWVKQAHGQSLEWMGYIDPNNYNTRYSQKFQGKVTITVDKSSTSAYMELNSLTSDDTAVYYCARDVYWGQGTTVTVSSGGGGSGGGGSGGGGSGGGGSDVVMTQTPLSLSVTPGQPASISCRSSQSLVHSNGKTYLQWYLQKPGQSPKLLIYKVSNRFSGVPDRFSGSGSGTDFTLKISRVEAEDVGVYFCAQSTHVWTFGGGTKVEIKRAHHHHHH is 0.04
